// data source = PubChem BioAssay AID2060361

- System: 463943-066-T-J2-PDC tumor spheroids with HUVEC/MSC, viability;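 also: spheroids exposed to drugs for seven days; 100% = DMSO vehicle control wells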
- Method: Anticancer human tumor 463943-066-T-J2-PDC patient-derived colon adenocarcinoma cell line growth inhibition [TAK]
- Experimental Context: second compound 9.49 µM; first compound 0.0316 µM; hits give low values
- Description: Combinatorial screen of targeted agents with TAK-243 and ipatasertib in multi-cell type tumor spheroids […] Compounds. […] If the clinical Cmax for an agent had not been determined, the highest concentration tested was 10 microM. NCI60 Cell Culture. […] The optimal seeding densities for each of the cell lines at each time point assessed were determined prior to performing the concentration response studies. […]
Binary label based on viability, T/C with cut-off 90%: below gives label 1, not below gives label 0.

These solved cases illustrate the format of a correct answer.
INPUT: Strictly below 90% in viability, T/C? CC(C)CC(NC(=O)CNC(=O)c1cc(Cl)ccc1Cl)B1OC(=O)CC(CC(=O)O)(C(=O)O)O1 (stereo unspecified) + CC(C)NCC(C(=O)N1CCN(c2ncnc3c2C(C)CC3O)CC1)c1ccc(Cl)cc1
OUTPUT: label 1

INPUT: Strictly below 90% in viability, T/C? COc1c(OCCCN2CCOCC2)ccc2c3n(c(=NC(=O)c4cnc(N)nc4)nc12)CCN3 + CC(C)NCC(C(=O)N1CCN(c2ncnc3c2C(C)CC3O)CC1)c1ccc(Cl)cc1
OUTPUT: label 1

INPUT: Strictly below 90% in viability, T/C? CC(C)(C)c1nc(-c2cccc(NS(=O)(=O)c3c(F)cccc3F)c2F)c(-c2ccnc(N)n2)s1 + CC(C)NCC(C(=O)N1CCN(c2ncnc3c2C(C)CC3O)CC1)c1ccc(Cl)cc1
OUTPUT: label 0

Next:
INPUT: Strictly below 90% in viability, T/C? COC1CC2CCC(C)C(O)(O2)C(=O)C(=O)N2CCCCC2C(=O)OC(C(C)CC2CCC(OCCO)C(OC)C2)CC(=O)C(C)C=C(C)C(O)C(OC)C(=O)C(C)CC(C)C=CC=CC=C1C (stereo unspecified) + CC(C)NCC(C(=O)N1CCN(c2ncnc3c2C(C)CC3O)CC1)c1ccc(Cl)cc1
OUTPUT: label 1

INPUT: Strictly below 90% in viability, T/C? CC(C)n1nc(-c2ccc3oc(N)nc3c2)c2c(N)ncnc21 + CC(C)NCC(C(=O)N1CCN(c2ncnc3c2C(C)CC3O)CC1)c1ccc(Cl)cc1
OUTPUT: label 1
